// data source = patent US20200199204A1

- study target: HIV-1 Env of AC10.29 (HIV-1)
- test: cell-based or functional assay
reported metric: neutralization IC50

>>> assay_result("CAP256-VRC26.05 (antibody, V domains shown) VH: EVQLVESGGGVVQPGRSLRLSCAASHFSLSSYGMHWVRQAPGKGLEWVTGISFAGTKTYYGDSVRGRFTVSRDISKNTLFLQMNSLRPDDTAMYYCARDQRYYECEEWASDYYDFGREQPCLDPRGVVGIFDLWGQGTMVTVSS VL: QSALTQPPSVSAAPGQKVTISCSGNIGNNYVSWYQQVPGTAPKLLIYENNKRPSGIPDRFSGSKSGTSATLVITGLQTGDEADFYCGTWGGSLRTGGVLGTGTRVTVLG")
"> 50 µg/mL"
>>> assay_result("CAP256-VRC26.10 (antibody, V domains shown) VH: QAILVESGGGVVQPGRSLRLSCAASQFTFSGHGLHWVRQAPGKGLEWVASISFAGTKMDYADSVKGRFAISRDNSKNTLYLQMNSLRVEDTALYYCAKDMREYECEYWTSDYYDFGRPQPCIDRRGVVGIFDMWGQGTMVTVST VL: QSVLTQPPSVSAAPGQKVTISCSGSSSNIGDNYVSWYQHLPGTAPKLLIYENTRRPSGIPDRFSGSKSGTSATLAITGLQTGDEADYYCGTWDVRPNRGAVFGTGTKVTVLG")
"> 50 µg/mL"
